Test system: ISC-enriched organoids
Assay: Primary screen, 384-well 2.5-D organoid differentiation (ENR+CD, 6 days): carbachol-induced lysozyme secretion (LYZ.S)
Format: cell-based, murine
Details: Dose 2.00 uM; primary screen, vs plate median
Mark true (1) for reported Dose.FC.LYZ.S (log 2 fold change) of 0.03 or greater; mark false (0) for anything smaller.

Compound	Assigned label
O=C1CC(=O)c2c(Cl)c(Cl)c(Cl)c(Cl)c21 [TCID]	false (0)
COc1c(C)c(C(=O)c2ccc(N)c(C(=O)[O-])c2)n2ccccc12.[Na+] [SSR128129E]	false (0)
CCn1c(N)c(C(=O)NC)c(=O)c2ccc(C#C[C@@](C)(O)COC)nc21 [SAR131675]	false (0)
O=C(Nc1ccncc1)c1cc([N+](=O)[O-])ccc1Cl [T0070907]	true (1)
CNC(=O)c1ccccc1Nc1nc(Nc2ccc(N3CCOCC3)cc2OC)ncc1Cl [TAE226 (NVP-TAE226)]	false (0)

INPUT: Please indicate if the recorded Dose.FC.LYZ.S (log 2 fold change) for NC(=O)c1ccc(-c2nc(-c3ccccn3)c(-c3ccc4c(c3)OCO4)[nH]2)cc1 [SB431542] meets or exceeds 0.03.
OUTPUT: true (1)

INPUT: Please give the result for C[S+]([O-])c1ccc(-c2nc(-c3ccc(F)cc3)c(-c3ccncc3)[nH]2)cc1 (centres unmarked) [SB203580] too.
OUTPUT: true (1)

INPUT: Please give the result for CNC(=O)c1ccc2cc([C@@]3(O)CCn4cncc43)ccc2c1 [TAK-700 (Orteronel)] too.
OUTPUT: true (1)
